# Tested on: Listeria monocytogenes 10403S
# Experiment summary: growth inhibition relative to ceftriaxone-alone control; higher = stronger potentiation of ceftriaxone growth inhibition
# Measurement context: 10 µM; ceftriaxone 1 ug/ml; 12 h
Task for the reader: assign each of the following compounds its reported growth inhibition.
Numbers only, in %.

Some compounds with recorded growth inhibition:
Nc1ncnc2occ(-c3ccc(NC(=O)Nc4cc(C(F)(F)F)ccc4F)cc3)c12; -0.902
Cc1ccc(NC(=O)c2ccoc2)cc1-c1ccc(C(=O)NCC2CC2)cc1; 16.8
Cc1csc(-c2nnc(Nc3ccc(Oc4ncccc4-c4ccnc(N)n4)cc3)c3ccccc23)c1; 64
CC(=O)Nc1cccc(-n2c(=O)n(C3CC3)c(=O)c3c(Nc4ccc(I)cc4F)n(C)c(=O)c(C)c32)c1; 31.3
CC(C)(C)Cn1c(N)nc2ccc(-c3[nH]c(C(C)(C)C)nc3-c3ccc(F)cc3)nc21; 97.5
Cc1nc(-c2ccccc2)n2nc(NCCCN3CCOCC3)ncc12; 0.025
CCC(=O)N1CCN(c2ccc(-n3c(=O)ccc4cnc5ccc(-c6cnc7ccccc7c6)cc5c43)cc2C(F)(F)F)CC1; -4.1
CN(C)CCOc1ccc(-c2cc(-c3ccc4c(c3)CCC4=NO)c(-c3ccncc3)o2)cc1; 36.5

Bench note: what growth inhibition did CS(=O)(=O)Nc1ccc(-c2cc(-c3ccccc3)cc(C(N)=O)c2N)cc1 show?
29.1

---

Give growth inhibition for every item shown.
# Tested on: Listeria monocytogenes 10403S
# Experiment summary: growth inhibition relative to ceftriaxone-alone control; higher = stronger potentiation of ceftriaxone growth inhibition
# Measurement context: 10 µM; ceftriaxone 1 ug/ml; 12 h

Batch request: growth inhibition per item, same order as input.
1. COc1cc2ncnc(Nc3ccc(C)c(O)c3)c2cc1OC
2. COc1ccc(-c2ccncc2)cc1C(N)=O
3. COc1cccc(-n2ncc3c(N/N=C/c4ccc(C(=O)NCCN(C)C)cc4)ncnc32)c1

1. -12.9%
2. -4.48%
3. 0.231%

---

# Tested on: Listeria monocytogenes 10403S
# Experiment summary: growth inhibition relative to ceftriaxone-alone control; higher = stronger potentiation of ceftriaxone growth inhibition
# Measurement context: 10 µM; ceftriaxone 1 ug/ml; 12 h
Task for the reader: assign each of the following molecules its reported growth inhibition.
One number for each entry, in %.

COc1cc(N2CCN(C(C)C)CC2)ccc1Nc1nc(Nc2cccc3ncccc23)c2cc[nH]c2n1; -2.19
COc1cc2ncn(-c3cc(OCc4ccccc4C(F)(F)F)c(C(=O)N(C)C)s3)c2cc1OC; -5.41
O=C(Cc1ccc(-c2ccc(OCCN3CCOCC3)cc2)cn1)NCc1ccccc1; 33.6
Cc1cc(Nc2cc(N3CCN(C)CC3)nc(/C=C/c3ccccc3)n2)n[nH]1; 85.7
O=C(Nc1ccc(Oc2ccc3[nH]c(NC(=O)c4ccco4)nc3c2)cc1)Nc1cc(C(F)(F)F)ccc1F; 9.02
COc1ccc(-c2nn3ncccc3c2-c2ccnc(Nc3ccc(Cl)c(C(F)(F)F)c3)n2)cc1; -8.69
COc1ccc2c(Oc3ccc(NC(=O)c4c(C)n(CC(C)(C)O)n(-c5ccccc5)c4=O)nc3)ccnc2c1; 28.9
COc1cc2ncnc(Nc3ccc(F)c(Cl)c3)c2cc1OCCCN1CCOCC1; 31

Parameter requested: growth inhibition. Apply to each item below.
1. O=C1Nc2ccc(-c3cccnc3)cc2C1=Cc1cc(Br)c(O)c(Br)c1
2. CO[C@H]1C[C@@H]2CC[C@@H](C)[C@@](O)(O2)C(=O)C(=O)N2CCCC[C@H]2C(=O)O[C@H]([C@H](C)C[C@@H]2CC[C@@H](OCCO)[C@H](OC)C2)CC(=O)[C@H](C)/C=C(\C)[C@@H](O)[C@@H](OC)C(=O)[C@H](C)C[C@H](C)/C=C/C=C/C=C/1C [Everolimus (RAD001)]
3. COc1cc(C)c(N(C)C(=O)CN(C)C)cc1Nc1nc(Nc2cccc(F)c2C(N)=O)c2cc[nH]c2n1
4. Nc1ncc(-c2cccc(S(N)(=O)=O)c2)c2scc(-c3ccc(F)c(Cl)c3)c12
5. CC(C)(CO)CNC(=O)c1ccc2c(c1)/C(=N/Nc1ccc(S(N)(=O)=O)cc1)C(=O)N2
6. CN(C)C1CCN(C(=O)c2ccc(NC(=O)Nc3ccc(-c4nc(N5CCOCC5)nc(N5CCOCC5)n4)cc3)cc2)CC1
7. CCN1CCC(CC(=O)Nc2n[nH]c3nc(-c4cccs4)c(Br)cc23)CC1

1: 22.1; 2: 27.5; 3: -0.447; 4: -7.14; 5: -13.4; 6: 22.7; 7: 7.98

Okay, here is my list. What is growth inhibition for each of these?
1. COc1ccc(-c2nn3ncccc3c2-c2ccnc(Nc3cccc(C(F)(F)F)c3)n2)cc1
2. CCn1c(-c2nonc2N)nc2cnc(Oc3cccc(NC(=O)c4ccc(OCCN5CCOCC5)cc4)c3)cc21
3. O=C1Nc2ccccc2/C1=C/Nc1ccc2[nH]c(=O)[nH]c2c1

[2.98, 0.09, 7.54]

---

# Test system: Listeria monocytogenes 10403S
# Experiment summary: growth inhibition relative to ceftriaxone-alone control; higher = stronger potentiation of ceftriaxone growth inhibition
# Measurement context: 10 µM; ceftriaxone 1 ug/ml; 12 h
Counter-ions that a name gives are not always drawn.
Endpoint: growth inhibition (%)
One number for each entry, in %.

Before answering, review these 5 worked examples.
COc1cccc(Nc2nccc(-c3cnn4ncccc34)n2)c1; -2.59
COc1cccc(-n2ncc3c(N/N=C/c4ccncc4)ncnc32)c1; -5.6
Cn1cc(-c2ccc3nnc(C(F)(F)c4ccc5ncccc5c4)n3n2)cn1; 17.1
O=C(Nc1c[nH]nc1-c1nc2ccc(CN3CCOCC3)cc2[nH]1)NC1CC1; 55.7
C[C@H](NC(=O)/C(C#N)=C/c1cccc(Br)n1)c1ccccc1; 99

Record growth inhibition for all entries; do not skip any.
1. CC(C)c1ccc2c(c1)NC(=O)/C2=N/Nc1ccc(S(N)(=O)=O)cc1
2. Cc1cc(Nc2nc(N[C@@H](C)c3ccc(F)cc3)c(C#N)cc2F)n[nH]1

1. -0.275
2. 96.9

// input: 3 compounds below; output: growth inhibition for each
1. O=c1cc(-c2cccc3c2Sc2ccccc2S3)oc(N2CCOCC2)c1
2. CO[C@H]1C[C@@H]2CC[C@@H](C)[C@@](O)(O2)C(=O)C(=O)N2CCCC[C@H]2C(=O)O[C@H]([C@H](C)C[C@@H]2CC[C@@H](OC(=O)C(C)(CO)CO)[C@H](OC)C2)CC(=O)[C@H](C)/C=C(\C)[C@@H](O)[C@@H](OC)C(=O)[C@H](C)C[C@H](C)/C=C/C=C/C=C/1C
3. CS(=O)(=O)CCNCc1ccc(-c2ccc3ncnc(Nc4ccc(OCc5cccc(F)c5)c(C(F)(F)F)c4)c3c2)o1

1: 86.2; 2: 19.8; 3: -12.1

Return reported growth inhibition values for all items listed beneath this line.
1. CCS(=O)(=O)c1ccc(OC)c(Nc2ncc(-c3ccccc3Cl)o2)c1
2. NCC(=O)Nc1ccc(-n2nc(C(F)(F)F)cc2-c2ccc3c(ccc4ccccc43)c2)cc1
3. C#Cc1cccc(Nc2ncnc3ccc(OCCCCNCCS(C)(=O)=O)cc23)c1
4. Cc1ccc(NC(=O)c2ccc(CN3CCN(C)CC3)cc2)cc1Nc1nccc(-c2cccnc2)n1 [Imatinib Mesylate]
5. O=C(O[C@H]1CN[C@H](C#Cc2cc3ncnc(Nc4ccc(Cc5ccccc5)cc4)c3s2)C1)N1CCOCC1
6. CS(=O)(=O)Nc1ccc(-c2ccc3c(NC(=O)C4CC4)n[nH]c3c2)cc1
7. CCc1cc2c(cc1N1CCC(N3CCOCC3)CC1)C(C)(C)c1[nH]c3cc(C#N)ccc3c1C2=O

1. -2.57
2. 85.5
3. -12
4. 29.9
5. -6.43
6. 38.6
7. -2.85

---

# System: Listeria monocytogenes 10403S;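 note: End-point A600 read in BHI broth at 37 °C with 2% DMSO, inhibition computed as (1 − OD with compound plus ceftriaxone ÷ OD with ceftriaxone only) × 100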
# Experiment summary: growth inhibition relative to ceftriaxone-alone control; higher = stronger potentiation of ceftriaxone growth inhibition
# Measurement context: 10 µM; ceftriaxone 1 ug/ml; 12 h
Endpoint: growth inhibition (%)
Answers are plain numbers, in %.

Solved cases below.
c1cnn2ncc(-c3ccnc(NCCCN4CCOCC4)n3)c2c1; -2.97
CO[C@H]1C[C@@H]2CC[C@@H](C)[C@@](O)(O2)C(=O)C(=O)N2CCCC[C@H]2C(=O)O[C@H]([C@H](C)C[C@@H]2CC[C@@H](O)[C@H](OC)C2)CC(=O)[C@H](C)/C=C(\C)[C@@H](O)[C@@H](OC)C(=O)[C@H](C)C[C@H](C)/C=C/C=C/C=C/1C [Rapamycin (Sirolimus)]; 30.2
Cc1nnc(-c2cccc(-c3ccc(C(=O)NCC4CC4)cc3)c2)o1; 3.5
CC1(C)CC(n2cnc(-c3ccc(F)cc3)c2-c2ccnc(N)n2)CC(C)(C)N1; -11.4
C[S+]([O-])c1ccc(-c2nc(-c3ccc(F)cc3)c(-c3ccncc3)[nH]2)cc1 (stereo not drawn); 28.4
CNC(=O)c1cncc(/C=C/c2c(Cl)cccc2Cl)c1; -4.82
NC(=O)c1ccc2c(-c3ccnc(NCCCO)n3)c(-c3ccc(F)cc3)nn2c1; -7.27

Next:
What value of growth inhibition has been recorded for this entry: O=C1NC(=O)C(N2CCc3ccccc32)=C1c1ccc(Cl)cc1
14.5

Attribution: the supplement of paper PMC5641865
